- Test system: 857933-349-R-J2-PDC complex spheroid viability;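 also: spheroids exposed to compounds for seven days before readout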
- protocol: Anticancer human tumor 857933-349-R-J2-PDC patient-derived colon adenocarcinoma cell line growth inhibition [POLQ]
- condition-description: second compound 0.0316 µM; first compound 0.0316 µM; stronger effect = lower value
I'd be grateful if you could share measured viability, T/C for these entries.

1. COc1cc(C2c3cc4c(cc3C(OC3OC5COC(C)OC5C(O)C3O)C3COC(=O)C23)OCO4)cc(OC)c1O (stereo not given) + COC1C(OC(N)=O)C(O)C(Oc2ccc3c(O)c(NC(=O)c4ccc(O)c(CC=C(C)C)c4)c(=O)oc3c2C)OC1(C)C = 80.7%
2. COc1cc2cc(C(=O)CCC(=O)O)sc2cc1OC + COC1C(OC(N)=O)C(O)C(Oc2ccc3c(O)c(NC(=O)c4ccc(O)c(CC=C(C)C)c4)c(=O)oc3c2C)OC1(C)C = 82%
3. CC1COCCN1c1cc(C2(S(C)(=N)=O)CC2)nc(-c2ccnc3[nH]ccc23)n1 (stereo not given) + Nc1ccc(C#CCN(C(=O)Cc2ncc(C(F)(F)F)cc2C(F)(F)F)c2ccc(F)cc2)nn1 = 85.9%
4. COc1cccc(OCCCN)c1-c1cc(Nc2cnc(C#N)cn2)n[nH]1 + Nc1ccc(C#CCN(C(=O)Cc2ncc(C(F)(F)F)cc2C(F)(F)F)c2ccc(F)cc2)nn1 = 83.8%

Below: the item to evaluate.
Challenge: Requested read-out viability, T/C, target or system 857933-349-R-J2-PDC complex spheroid viability, entry O=C(Nc1ccc(O)c(NS(=O)(=O)c2ccc(F)cc2)c1)c1ccc(-c2ccccc2)cc1 + COC1C(OC(N)=O)C(O)C(Oc2ccc3c(O)c(NC(=O)c4ccc(O)c(CC=C(C)C)c4)c(=O)oc3c2C)OC1(C)C;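 also: spheroids exposed to compounds for seven days before readout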
Response given: 70.1%
